System: human isoform h5-HT4e (Homo sapiens)
Construct: expressed in transfected cells; membrane preparation
Sequence (Q13639 1-378 isoform Q13639-5): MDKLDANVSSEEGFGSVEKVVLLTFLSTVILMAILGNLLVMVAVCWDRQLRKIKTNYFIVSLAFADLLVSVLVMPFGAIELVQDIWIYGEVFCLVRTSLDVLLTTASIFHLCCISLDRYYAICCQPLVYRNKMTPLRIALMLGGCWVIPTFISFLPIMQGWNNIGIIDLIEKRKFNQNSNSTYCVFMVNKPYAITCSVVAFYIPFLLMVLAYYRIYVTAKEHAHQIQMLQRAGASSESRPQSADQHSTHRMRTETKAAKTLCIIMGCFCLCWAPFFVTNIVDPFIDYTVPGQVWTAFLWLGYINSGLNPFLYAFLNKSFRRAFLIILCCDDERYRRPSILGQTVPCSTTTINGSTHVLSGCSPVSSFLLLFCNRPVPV
Assay procedure: displacement of radioligand [3H]-GR113808 in rat glial cells expressing h5-HT4e
Type: binding
Measurement setup: [3H]-GR113808 0.2 nM, membranes of rat glial cells expressing h5-HT4e, 25° C., 30 min; read-out: Ki
Method: The compounds of the invention were evaluated by measuring their affinity constant Ki determined by displacing a radioligand [^3H]-GR113808 in rat glial cells stably expressing the human isoform h5-HT4e. […] Membrane-bound radioactivity is retained on the filter, which was cut and washed with cold buffer (50 mM Tris-HCl, pH 7.4) and incubated overnight in 4 ml of scintillation liquid. Radioactivity was measured in a liquid scintillation counter (Beckman LS 6500C). […]
Reported endpoint: Ki (nM)
I only need the number, in nM, no unit after it.

# count of solved cases: 4
Molecule	System	Reported endpoint	Reported result
CCOc1ccccc1NC(=O)OCCCN1CCN(c2ncccn2)CC1 [Compound 44]	human isoform h5-HT4e (Homo sapiens)	Ki	11.8
CCOc1ccccc1NC(=O)OCCCN1CCN(c2ccncn2)CC1 [Compound 43]	human isoform h5-HT4e (Homo sapiens)	Ki	10.4
COc1ccccc1NC(=O)OCCN1CCN(c2cccnn2)CC1 [Compound 64]	human isoform h5-HT4e (Homo sapiens)	Ki	10.6
COc1ccccc1NC(=O)OCCCN1CCN(c2ccncc2)CC1 [Compound 83]	human isoform h5-HT4e (Homo sapiens)	Ki	10

Assay human isoform h5-HT4e (Homo sapiens), sample CCOc1ccccc1NC(=O)OCCN1CCN(c2cccc(C)c2)CC1 [Compound 21] , Ki read: 20.2

Assay human isoform h5-HT4e (Homo sapiens), sample COc1ccccc1NC(=O)OCCN1CCN(c2ccccn2)CC1 [Compound 62] , Ki read: 9.3

Assay human isoform h5-HT4e (Homo sapiens), sample CCOc1ccccc1NC(=O)OCCCN1CCN(c2cccnn2)CC1 [Compound 42] , Ki read: 3.6

Assay human isoform h5-HT4e (Homo sapiens), sample CCOc1ccccc1NC(=O)OCCN1CCN(c2ccccn2)CC1 [Compound 24] , Ki read: 4.5

Assay human isoform h5-HT4e (Homo sapiens), sample COc1ccccc1NC(=O)OCCN1CCN(c2ncccn2)CC1 [Compound 65] , Ki read: 10.4
